Target: zif268 DBD R18D (DE) (UniProt P08046 331-420, R349D)
Experiment: competition EMSA (QuMFRA); 30 mM Tris-HCl pH 8.0, 50 mM NaCl, 0.1 mg/ml BSA, 3 mM DTT, 20 uM ZnSO4, 5 ug/ml poly(dI-dC), 1 h on ice; 10% polyacrylamide gel
Measured quantity: binding signal

Solved entries (count: 4):
Binder	binding signal
Zif_6 (AC) (dsDNA) DNA 1: TCGAGGTCGACGGTATCGCGTGGGACCTCCACTAGTTCTAGAGCGGCCGCCAC DNA 2: GTGGCGGCCGCTCTAGAACTAGTGGAGGTCCCACGCGATACCGTCGACCTCGA	3.08 Ka relative to CG
Zif_2 (CA) (dsDNA) DNA 1: TCGAGGTCGACGGTATCGCGTGGGCACTCCACTAGTTCTAGAGCGGCCGCCAC DNA 2: GTGGCGGCCGCTCTAGAACTAGTGGAGTGCCCACGCGATACCGTCGACCTCGA	1.16 Ka relative to CG
Zif_5 (AA) (dsDNA) DNA 1: TCGAGGTCGACGGTATCGCGTGGGAACTCCACTAGTTCTAGAGCGGCCGCCAC DNA 2: GTGGCGGCCGCTCTAGAACTAGTGGAGTTCCCACGCGATACCGTCGACCTCGA	2.25 Ka relative to CG
Zif_4 (AG) (dsDNA) DNA 1: TCGAGGTCGACGGTATCGCGTGGGAGCTCCACTAGTTCTAGAGCGGCCGCCAC DNA 2: GTGGCGGCCGCTCTAGAACTAGTGGAGCTCCCACGCGATACCGTCGACCTCGA	1.48 Ka relative to CG

Kindly consider the entry below.
Consider the binder Zif_3 (CC) (dsDNA) DNA 1: TCGAGGTCGACGGTATCGCGTGGGCCCTCCACTAGTTCTAGAGCGGCCGCCAC DNA 2: GTGGCGGCCGCTCTAGAACTAGTGGAGGGCCCACGCGATACCGTCGACCTCGA and give its measured binding signal. 1.91 Ka relative to CG
